- Measured on: LC3B K49A (for ITC) (human, UniProt Q9GZQ8 1-120, K49A)
- Assay overview: ITC; 25 °C, VP-ITC; peptides 0.31 mM titrated into 0.018 mM LC3B proteins in 25 steps; 40 mM Na2HPO4, 80 mM NaCl, pH 7.0; one-site binding model
- Particulars: both partners purified
Test readout: pKd
# pKd = -log10(concentration in molar units)

# pKd lookup, item RPEEQMESDNCSGGDDDWTHLS [p62 LIR peptide] 6.01
